- System: Escherichia coli
- test_name: Tested for in vitro antibacterial activity against Escherichia coli W9523
- Type: functional
measurement_name: MIC (µg/mL)

# molecule, unit_spec, lt_gt_eq, reported_measurement
data = [
    ("N[C@@H]1[C@H]2CN(c3nc4c(cc3F)c(=O)c(C(=O)O)cn4-c3ccc(F)cc3F)C[C@@H]12 [TROVAFLOXACIN]", "µg/mL", ">", 128),
    ("O=C(O)c1cn(C2CC2)c2cc(N3CCNCC3)c(F)cc2c1=O [CIPROFLOXACIN]", "µg/mL", "=", 128),
    ("NC1CN(c2c(F)cc3c(=O)c(C(=O)O)cn(-c4ccc(F)cc4F)c3c2Cl)C1", "µg/mL", "=", 32),
    ("Nc1cc(-n2cc(C(=O)O)c(=O)c3cc(F)c(N4CC(N)C4)c(Cl)c32)c(F)cc1F", "µg/mL", "=", 1),
]
